# ASSAY REMARKS: acute toxicity (LD 50) in mice (i.v.)
# ASSAY CONDITIONS: mouse, in vivo, iv
Where a name gives a salt, the structure may show the parent alone.
REPORTED PROPERTY: LD50 (mg/kg)
Dear colleague, please return just the value in mg/kg, with no unit written.

Which measured LD50 value corresponds to C=C1COc2c(N3CCC(O)C3)c(F)cc3c(=O)c(C(=O)O)cn1c23 (centres unmarked) [Ia, sodium salt] ?
333
